Tested on: HepG2
assay.overview: Cytotoxicity against human HepG2 cells assessed as compound concentration causing changes in mitochondrial potential by Cell Health assay
Type: cell-based
measure.name: Activity

compound	assay.system	measured.value
Cc1c(CN2CCOCC2)cc(-c2ccc(C(C)C)cc2)n1C1CCCOC1 (stereo not given)	HepG2	> 200 µM
Cc1c(CN2CCOCC2)cc(-c2ccc(Cl)cn2)n1-c1ccc(F)cc1	HepG2	> 200 µM
Cc1cc(Cl)ccc1-c1cc(CN2CCOCC2)c(C)n1-c1ccc(F)cc1	HepG2	> 200 µM
Cc1c(CN2CCOCC2)cc(-c2ccc(C(C)C)cc2)n1-c1ccc(F)cc1	HepG2	> 40 µM
Cc1c(CN2CCOCC2)cc(-c2ccc(C(C)C)cc2)n1C1CCCCC1	HepG2	> 200 µM

---

The following compounds are listed with their measured solubility kinetic at 1 h values.
assay.overview: Kinetic solubility in pH 7.4 phosphate buffered saline incubated for 1 hr by chemiluminescent nitrogen detection method
Assay type: physicochemical
conditions.used: read-out: Kinetic_solubility
measure.name: solubility kinetic at 1 h

molecular.string	measured.value
Cc1c(CN2CCOCC2)cc(-c2ccc(C(C)C)cc2)n1-c1ccc(F)cc1	< 1 µM
Cc1c(CN2CCOCC2)cc(-c2ccc(C(C)C)cc2)n1C1CCCCC1	< 1 µM
Cc1c(CN2CCOCC2)cc(-c2ccc(C(F)(F)F)cc2)n1-c1ccc(F)cc1	< 1 µM

---

The following molecules are listed with their measured selectivity ratio values.
assay.overview: in vitro
conditions.used: human, HepG2 cells
Description: Selectivity index, ratio of TC50 for human HepG2 cells to MIC for Mycobacterium tuberculosis
measure.name: selectivity ratio

molecular.string	measured.value
Cc1c(CN2CCOCC2)cc(-c2ccc(C(F)(F)F)cc2)n1C1CCCCC1	> 167
Cc1c(CN2CCOCC2)cc(-c2ccc(C(C)C)cc2)n1C1CCCCC1	> 267
Cc1c(CN2CCOCC2)cc(-c2ccc(C(C)C)cc2)n1CC(C)C	100
Cc1c(CN2CCOCC2)cc(-c2ccc(C(C)C)cc2)n1-c1ccc(F)cc1	333
Cc1c(CN2CCOCC2)cc(-c2ccc(C(C)C)cc2)n1Cc1ccc(F)cc1	250

---

The following compounds are listed with their measured CC50 at 48 h values.
assay.overview: Cytotoxicity against human HepG2 cells incubated for 48 hrs by Cell-titer Glo assay
Format: cell-based
conditions.used: read-out: TC50
measure.name: CC50 at 48 h

molecular.string	measured.value
Cc1c(CN2CCOCC2)cc(-c2ccc(C(C)C)cc2)n1-c1ncccn1	> 100 µM
Cc1c(CN2CCOCC2)cc(-c2ccc(C(C)C)cc2)n1-c1ccc(C(=O)O)cc1	> 100 µM
Cc1cc(Cl)ccc1-c1cc(CN2CCOCC2)c(C)n1-c1ccc(F)cc1	> 100 µM
